These data points were gathered from patent US20220177587A1.

Target: CD28 (Homo sapiens, UniProt P10747)
Experiment: Jurkat/IL2 + CHO/OKT3 +/- PD-L1 reporter assay: PD-L1-dependent CD28 costimulation
Type: cell-based
Set-up: host or cells: Jurkat cells expressing an IL-2-luciferase reporter
Conditions: Table E24; Jurkat/IL2 + CHO/OKT3/PD-L1; 5.0 nM
Result Type: Relative Luciferase Units (RLU), CD80 Conc 5.0 nM

# Molecule, Experimental Value
measured = [
    ("H18C/A26P/E35D/M47L/V68M/A71G (protein, UniProt P33681 35-288, looked up, variant H18C A26P E35D M47L V68M A71G) T-lymphocyte activation …: VIHVTKEVKEVATLSCGCNVSVEELPQTRIYWQKDKKMVLTMMSGDLNIWPEYKNRTIFDITNNLSIMILGLRPSDEGTYECVVLKYEKDAFKREHLAEVTLSVKADFPTPSISDFEIPTSNIRRIICSTSGGFPEPHLSWLENGEELNAINTTVSQDPETELYAVSSKLDFNMTTNHSFMCLIKYGHLRVNQTFNWNTTKQEHFPDNLLPSWAITLISVNGIFVICCLTYCFAPRCRERRRNERLRRESVRPV", 936),
    ("H18V/E35D/M47V/V68M/A71G/D90G (protein, UniProt P33681 35-288, looked up, variant H18V E35D M47V V68M A71G D90G) T-lymphocyte activation …: VIHVTKEVKEVATLSCGVNVSVEELAQTRIYWQKDKKMVLTMMSGDVNIWPEYKNRTIFDITNNLSIMILGLRPSDEGTYECVVLKYEKGAFKREHLAEVTLSVKADFPTPSISDFEIPTSNIRRIICSTSGGFPEPHLSWLENGEELNAINTTVSQDPETELYAVSSKLDFNMTTNHSFMCLIKYGHLRVNQTFNWNTTKQEHFPDNLLPSWAITLISVNGIFVICCLTYCFAPRCRERRRNERLRRESVRPV", 854),
    ("H18L/A26N/D46E/V68M/A71G/D90G (protein, UniProt P33681 35-288, looked up, variant H18L A26N D46E V68M A71G D90G) T-lymphocyte activation …: VIHVTKEVKEVATLSCGLNVSVEELNQTRIYWQKEKKMVLTMMSGEMNIWPEYKNRTIFDITNNLSIMILGLRPSDEGTYECVVLKYEKGAFKREHLAEVTLSVKADFPTPSISDFEIPTSNIRRIICSTSGGFPEPHLSWLENGEELNAINTTVSQDPETELYAVSSKLDFNMTTNHSFMCLIKYGHLRVNQTFNWNTTKQEHFPDNLLPSWAITLISVNGIFVICCLTYCFAPRCRERRRNERLRRESVRPV", 815),
    ("H18F/A26P/E35D/M47I/V68M/A71G/D90G (protein, UniProt P33681 35-288, looked up, variant H18F A26P E35D M47I V68M A71G D90G) T-lymphocyte activation …: VIHVTKEVKEVATLSCGFNVSVEELPQTRIYWQKDKKMVLTMMSGDINIWPEYKNRTIFDITNNLSIMILGLRPSDEGTYECVVLKYEKGAFKREHLAEVTLSVKADFPTPSISDFEIPTSNIRRIICSTSGGFPEPHLSWLENGEELNAINTTVSQDPETELYAVSSKLDFNMTTNHSFMCLIKYGHLRVNQTFNWNTTKQEHFPDNLLPSWAITLISVNGIFVICCLTYCFAPRCRERRRNERLRRESVRPV", 926),
    ("H18V/A26Q/E35D/M47V/V68L/A71G/D90G (protein, UniProt P33681 35-288, looked up, variant H18V A26Q E35D M47V V68L A71G D90G) T-lymphocyte activation …: VIHVTKEVKEVATLSCGVNVSVEELQQTRIYWQKDKKMVLTMMSGDVNIWPEYKNRTIFDITNNLSILILGLRPSDEGTYECVVLKYEKGAFKREHLAEVTLSVKADFPTPSISDFEIPTSNIRRIICSTSGGFPEPHLSWLENGEELNAINTTVSQDPETELYAVSSKLDFNMTTNHSFMCLIKYGHLRVNQTFNWNTTKQEHFPDNLLPSWAITLISVNGIFVICCLTYCFAPRCRERRRNERLRRESVRPV", 795),
    ("H18Y/A26P/E35D/M47V/V68M/A71G (protein, UniProt P33681 35-288, looked up, variant H18Y A26P E35D M47V V68M A71G) T-lymphocyte activation …: VIHVTKEVKEVATLSCGYNVSVEELPQTRIYWQKDKKMVLTMMSGDVNIWPEYKNRTIFDITNNLSIMILGLRPSDEGTYECVVLKYEKDAFKREHLAEVTLSVKADFPTPSISDFEIPTSNIRRIICSTSGGFPEPHLSWLENGEELNAINTTVSQDPETELYAVSSKLDFNMTTNHSFMCLIKYGHLRVNQTFNWNTTKQEHFPDNLLPSWAITLISVNGIFVICCLTYCFAPRCRERRRNERLRRESVRPV", 821),
    ("H18V/A26N/E35D/M47V/V68M/A71G (protein, UniProt P33681 35-288, looked up, variant H18V A26N E35D M47V V68M A71G) T-lymphocyte activation …: VIHVTKEVKEVATLSCGVNVSVEELNQTRIYWQKDKKMVLTMMSGDVNIWPEYKNRTIFDITNNLSIMILGLRPSDEGTYECVVLKYEKDAFKREHLAEVTLSVKADFPTPSISDFEIPTSNIRRIICSTSGGFPEPHLSWLENGEELNAINTTVSQDPETELYAVSSKLDFNMTTNHSFMCLIKYGHLRVNQTFNWNTTKQEHFPDNLLPSWAITLISVNGIFVICCLTYCFAPRCRERRRNERLRRESVRPV", 985),
    ("H18V/A26D/E35D/M47V/V68M/A71G/D90G (protein, UniProt P33681 35-288, looked up, variant H18V A26D E35D M47V V68M A71G D90G, Fc fusion) T-lymphocyte activation …: VIHVTKEVKEVATLSCGVNVSVEELDQTRIYWQKDKKMVLTMMSGDVNIWPEYKNRTIFDITNNLSIMILGLRPSDEGTYECVVLKYEKGAFKREHLAEVTLSVKADFPTPSISDFEIPTSNIRRIICSTSGGFPEPHLSWLENGEELNAINTTVSQDPETELYAVSSKLDFNMTTNHSFMCLIKYGHLRVNQTFNWNTTKQEHFPDNLLPSWAITLISVNGIFVICCLTYCFAPRCRERRRNERLRRESVRPV", 771),
    ("H181/A26P/E35D/M47V/V68M/A71G (protein) VIHVTKEVKEVATLSCGINVSVEELPQTRIYWQKDKKMVLTMMSGDVNIWPEYKNRTIFDITNNLSIMILGLRPSDEGTYECVVLKYEKDAFKREHLAEVTLSVKAD", 916),
]
